Consider the following binders and their measured Kd readings.
# tested_system: feline FcRn complex (FcRn-α subunit and β-microglobulin) (feline)
# test_summary: SPR (Biacore), FcRn on SA chip, pH 7.4

binder	Kd
feline IgG1a mutant ID No. 256: S428M, S434W (antibody, part only; not given: variable domains and light chain, not shown: another chain or arm of the molecule) constant: ASTTAPSVFPLAPSCGTTSGATVALACLVLGYFPEPVTVSWNSGALTSGVHTFPAVLQASGLYSLSSMVTVPSSRWLSDTFTCNVAHPPSNTKVDKTVRKTDHPPGPKPCDCPKCPPPEMLGGPSIFIFPPKPKDTLSISRTPEVTCLVVDLGPDDSDVQITWFVDNTQVYTAKTSPREEQFNSTYRVVSVLPILHQDWLKGKEFKCKVNSKSLPSPIERTISKAKGQPHEPQVYVLPPAQEELSRNKVSVTCLIKSFHPPDIAVEWEITGQPEPENNYRTTPPQLDSDGTYFVYSKLSVDRSHWQRGNTYTCSVMHEALHWHHTQKSLTQSPGK	31.6 nM
feline IgG1a mutant ID No. 328: S428Y, D312P, S434Y, P247V, T250Q, S252H (antibody, part only; not given: Variable domains, not shown: another chain or arm of the molecule; small tags and cut ends) constant: ASTTAPSVFPLAPSCGTTSGATVALACLVLGYFPEPVTVSWNSGALTSGVHTFPAVLQASGLYSLSSMVTVPSSRWLSDTFTCNVAHPPSNTKVDKTVRKTDHPPGPKPCDCPKCPPPEMLGGPSIFIFPPKVKDQLHISRTPEVTCLVVDLGPDDSDVQITWFVDNTQVYTAKTSPREEQFNSTYRVVSVLPILHQPWLKGKEFKCKVNSKSLPSPIERTISKAKGQPHEPQVYVLPPAQEELSRNKVSVTCLIKSFHPPDIAVEWEITGQPEPENNYRTTPPQLDSDGTYFVYSKLSVDRSHWQRGNTYTCSVYHEALHYHHTQKSLTQSPGK	8.68 nM
